Assay: half-life in β-galactosidase-catalyzed hydrolysis (pseudo first order kinetics)
Type: biochemical, Bacillus circulans
Conditions: potassium phosphate buffer with β-galactosidase; 5 mM compound, enzyme 140 unit per mmol, 50 mM potassium phosphate buffer pH 7.0, absorbance at 420 nm; read-out: T1/2 toward the β-galactosidase-catalyzed hydrolysis (converted)
Readout Kind: half-life at 5000 µM (min)
The figure you give is taken to be in min; do not add the unit.

Input line: // half-life at 5000 µM lookup, key: O=[N+]([O-])c1ccc(O[C@@H]2O[C@H](C(O)O)[C@H](O)[C@H](O)[C@H]2O)cc1 [Compound 2]
Output line: 24
